B1: TPR 5TU (parent)
chain: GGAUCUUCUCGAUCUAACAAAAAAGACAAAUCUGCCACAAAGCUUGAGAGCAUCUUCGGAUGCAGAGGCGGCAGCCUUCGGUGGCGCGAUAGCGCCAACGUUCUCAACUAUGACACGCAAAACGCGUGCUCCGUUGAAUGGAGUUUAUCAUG

- Variants of: B1
- assay_info: polymerase ribozyme fitness, log enrichment relative to wild type (log ratio); higher = more active; in vitro selection for triplet polymerase activity
This sample holds only a part of the variants without activity.
Please note: 1.0 applies when polymerase ribozyme fitness (log ratio) is -3 or greater, and 0.0 applies otherwise.

Confirm if polymerase ribozyme fitness (log ratio) reported for the variant U45C C93A is -3 or above.
0.0

Also need A29U G92A A142C , thanks.
0.0

Also need G84U U144A , thanks.
0.0

Also need U13G U31C C96A , thanks.
1.0

Also need C51U G84U , thanks.
1.0
